biological target: Protein kinase C beta type (Homo sapiens, UniProt P05771); assay: Evaluated against recombinant human Protein kinase C beta 1
Sequence (P05771 whole entry): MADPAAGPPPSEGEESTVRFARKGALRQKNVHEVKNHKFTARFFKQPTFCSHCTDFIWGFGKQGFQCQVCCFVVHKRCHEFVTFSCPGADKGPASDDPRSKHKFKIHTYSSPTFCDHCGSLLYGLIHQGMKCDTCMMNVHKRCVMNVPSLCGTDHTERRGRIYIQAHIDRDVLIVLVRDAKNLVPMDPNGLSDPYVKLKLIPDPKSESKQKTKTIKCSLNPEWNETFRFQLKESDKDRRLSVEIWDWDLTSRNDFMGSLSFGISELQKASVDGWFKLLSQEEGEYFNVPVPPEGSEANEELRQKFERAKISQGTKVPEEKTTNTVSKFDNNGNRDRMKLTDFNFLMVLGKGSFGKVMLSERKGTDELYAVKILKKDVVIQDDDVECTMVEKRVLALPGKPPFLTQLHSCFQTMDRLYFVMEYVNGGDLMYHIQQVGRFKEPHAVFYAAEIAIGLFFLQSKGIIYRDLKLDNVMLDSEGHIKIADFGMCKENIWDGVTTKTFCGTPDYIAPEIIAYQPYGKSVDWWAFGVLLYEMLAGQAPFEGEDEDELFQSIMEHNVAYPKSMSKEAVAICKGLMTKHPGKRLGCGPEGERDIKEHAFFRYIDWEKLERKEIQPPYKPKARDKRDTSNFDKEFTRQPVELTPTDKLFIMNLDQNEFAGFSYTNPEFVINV
readout-kind: IC50 (nM)
Please give a number only; it is taken to be in nM.

# count of solved cases: 3
compound="O=C(OCC(NS(=O)(=O)c1ccccc1)c1ccc(O)cc1)c1cc(O)c(C(=O)c2c(O)cccc2C(=O)O)c(O)c1 (centres undefined)" unit_info=nM value_measured=11000
compound="O=C(OCC(Cc1ccc(O)cc1)NS(=O)(=O)c1ccccc1)c1cc(O)c(C(=O)c2c(O)cccc2C(=O)O)c(O)c1 (centres undefined)" unit_info=nM value_measured=220
compound="O=C(NC1CCCC1OC(=O)c1cc(O)c(C(=O)c2c(O)cccc2C(=O)O)c(O)c1)c1ccc(O)cc1 (centres undefined)" unit_info=nM value_measured=40

The reported value for O=C(OCC(COc1ccc(O)cc1)NS(=O)(=O)c1ccccc1)c1cc(O)c(C(=O)c2c(O)cccc2C(=O)O)c(O)c1 (centres undefined) in terms of IC50 is 1600

---

biological target: Protein kinase C beta type (Homo sapiens, UniProt P05771); test: Evaluated against recombinant human Protein kinase C beta 2
readout-kind: IC50 (nM)
Report as a plain number; the unit nM is understood.

Solved cases below.
compound="O=C(NC(COC(=O)c1cc(O)c(C(=O)c2c(O)cccc2C(=O)O)c(O)c1)Cc1ccc(O)cc1)c1ccccc1 (stereo not drawn)" readout_kind=IC50 value_measured=2800
compound=O=C(OCCCc1ccc(O)cc1)c1cc(O)c(C(=O)c2c(O)cccc2C(=O)O)c(O)c1 readout_kind=IC50 value_measured=270
compound="O=C(NC1CCCC1OC(=O)c1cc(O)c(C(=O)c2c(O)cccc2C(=O)O)c(O)c1)c1ccc(O)cc1 (stereo not drawn)" readout_kind=IC50 value_measured=50

Just so you know, measured IC50 for COC(=O)c1cccc(O)c1C(=O)c1c(O)cc(C(=O)OC2CCCC2Cc2ccc(O)cc2)cc1O (stereo not drawn) came out at 90

So, O=C(OC1CNCC1Cc1ccc(O)cc1)c1cc(O)c(C(=O)c2c(O)cccc2C(=O)O)c(O)c1 (stereo not drawn) ? Its IC50 was 30

Field IC50 (entry CC(CCc1ccc(O)cc1)OC(=O)c1cc(O)c(C(=O)c2c(O)cccc2C(=O)O)c(O)c1 (stereo not drawn) ) reads 30

In plain terms, O=C(OC1CCCC1Cc1ccc(O)cc1)c1cc(O)c(C(=O)c2c(O)cccc2C(=O)O)c(O)c1 (stereo in doubt; 20b) has a documented IC50 of 20

What the record says about `O=C(OC[C@H](Cc1ccc(O)cc1)NS(=O)(=O)c1ccccc1)c1cc(O)c(C(=O)c2c(O)cccc2C(=O)O)c(O)c1` : IC50 is 20

---

target: UniProtKB P05129; assay: Evaluated against recombinant human Protein kinase C gamma
pIC50: −log10 of the molar value.
Record 1 (yes) whenever pIC50 is at 6 or higher; record 0 (no) when lower.

compound="O=C(OC1CNCC1Cc1ccc(O)cc1)c1cc(O)c(C(=O)c2c(O)cccc2C(=O)O)c(O)c1 (configuration not stated)" class="1 (yes)"
compound="CC(CCc1ccc(O)cc1)OC(=O)c1cc(O)c(C(=O)c2c(O)cccc2C(=O)O)c(O)c1 (configuration not stated)" class="1 (yes)"
compound=Cc1ccc(S(=O)(=O)N2CCC[C@@H](OC(=O)c3cc(O)c(C(=O)c4c(O)cccc4C(=O)O)c(O)c3)[C@H](NC(=O)c3ccc(O)cc3)C2)cc1 class="0 (no)"

Evaluate O=C(OC1CCCC1Cc1ccc(O)cc1)c1cc(O)c(C(=O)c2c(O)cccc2C(=O)O)c(O)c1 (stereo in doubt; 20b) : pIC50 at minimum 6?
1 (yes)

Please indicate if the recorded pIC50 for O=C(OCC(COc1ccc(O)cc1)NS(=O)(=O)c1ccccc1)c1cc(O)c(C(=O)c2c(O)cccc2C(=O)O)c(O)c1 (configuration not stated) meets or exceeds 6.
0 (no)

Please indicate if the recorded pIC50 for `COC(=O)c1cccc(O)c1C(=O)c1c(O)cc(C(=O)OCCCc2ccc(O)cc2)cc1O` meets or exceeds 6.
0 (no)

---

molecular target: Protein kinase C beta type (Homo sapiens); assay: Evaluated against recombinant human Protein kinase C beta 1
pIC50 values by entry
Convention used: pIC50 is expressed as -log10 of the molar concentration.

Previously resolved entries follow.
compound=O=C(OCCCc1ccc(O)cc1)c1cc(O)c(C(=O)c2c(O)cccc2C(=O)O)c(O)c1 value_measured=6.68
compound="COC(=O)c1cccc(O)c1C(=O)c1c(O)cc(C(=O)OC2CNCC2Cc2ccc(O)cc2)cc1O (configuration not stated)" value_measured=6.96

Record summary for CN(C)C(COC(=O)c1cc(O)c(C(=O)c2c(O)cccc2C(=O)O)c(O)c1)Cc1ccc(O)cc1 (configuration not stated) : reported pIC50 = 6.06

Lab note: `O=C(OCCCCc1ccc(O)cc1)c1cc(O)c(C(=O)c2c(O)cccc2C(=O)O)c(O)c1` gave pIC50 of 6.02

Value of pIC50 reported for the compound O=C(OC1CNCC1Cc1ccc(O)cc1)c1cc(O)c(C(=O)c2c(O)cccc2C(=O)O)c(O)c1 (configuration not stated) is 8.00

Lab note: `COC(=O)c1cccc(O)c1C(=O)c1c(O)cc(C(=O)OC[C@@H](Cc2ccc(O)cc2)NS(=O)(=O)c2ccccc2)cc1O` gave pIC50 of 5.66

Record summary for CC(CCc1ccc(O)cc1)OC(=O)c1cc(O)c(C(=O)c2c(O)cccc2C(=O)O)c(O)c1 (configuration not stated) : reported pIC50 = 7.40

---

The following molecules are shown together with reported IC50 values.
assay: Evaluated against bovine heart Protein Kinase A (PKA)

molecule="O=C(NC(COC(=O)c1cc(O)c(C(=O)c2c(O)cccc2C(=O)O)c(O)c1)Cc1ccc(O)cc1)c1ccc(O)cc1 (stereo unspecified)" value_measured="> 50 µM"

The molecule O=C(OCC(Cc1ccc(O)cc1)NS(=O)(=O)c1ccc2ccccc2c1)c1cc(O)c(C(=O)c2c(O)cccc2C(=O)O)c(O)c1 (stereo unspecified) showed IC50 equal to > 50 µM

// sample CN(C)C(COC(=O)c1cc(O)c(C(=O)c2c(O)cccc2C(=O)O)c(O)c1)Cc1ccc(O)cc1 (stereo unspecified) , its IC50 was > 50 µM

// field: IC50; key: `O=C(OCCCc1ccc(O)cc1)c1cc(O)c(C(=O)c2c(O)cccc2C(=O)O)c(O)c1` ; value = > 50 µM

What the record says about O=C(NC(COC(=O)c1cc(O)c(C(=O)c2c(O)cccc2C(=O)O)c(O)c1)Cc1ccc(O)cc1)c1ccccc1 (stereo unspecified) : IC50 is > 50 µM

Reported IC50 for O=C(OC1CCCC1Oc1ccc(O)cc1)c1cc(O)c(C(=O)c2c(O)cccc2C(=O)O)c(O)c1 (stereo unspecified) was > 50 µM

Looking up `O=C(OC[C@@H](Cc1ccc(O)cc1)NS(=O)(=O)c1ccccc1)c1cc(O)c(C(=O)c2c(O)cccc2C(=O)O)c(O)c1` , I see its IC50 listed as > 50 µM

Documented IC50 of `O=C(OCCCCc1ccc(O)cc1)c1cc(O)c(C(=O)c2c(O)cccc2C(=O)O)c(O)c1` : > 50 µM

molecule O=C(NC1CNCCCC1OC(=O)c1cc(O)c(C(=O)c2c(O)cccc2C(=O)O)c(O)c1)c1ccc(O)cc1 (racemic) , IC50 observed: 0.06 µM

In plain terms, `O=C(NCCOC(=O)c1cc(O)c(C(=O)c2c(O)cccc2C(=O)O)c(O)c1)c1ccc(O)cc1` has a documented IC50 of 8.4 µM

The reported value for O=C(OCC(COc1ccc(O)cc1)NS(=O)(=O)c1ccccc1)c1cc(O)c(C(=O)c2c(O)cccc2C(=O)O)c(O)c1 (stereo unspecified) in terms of IC50 is > 50 µM

In plain terms, `O=C(OC[C@H](Cc1ccc(O)cc1)NS(=O)(=O)c1ccccc1)c1cc(O)c(C(=O)c2c(O)cccc2C(=O)O)c(O)c1` has a documented IC50 of > 50 µM

For reference, reported IC50 for `Cc1ccc(S(=O)(=O)N2CCC[C@@H](OC(=O)c3cc(O)c(C(=O)c4c(O)cccc4C(=O)O)c(O)c3)[C@H](NC(=O)c3ccc(O)cc3)C2)cc1` stands at > 150 µM

---

assay: Inhibition of rat brain Ca 2+/Calmodulin dependent kinase
readout-kind: pIC50
// scale note: pIC50 = -log10(conc_M); give the bare number

compound=O=C(N[C@@H]1CNCCC[C@H]1OC(=O)c1cc(O)c(C(=O)c2c(O)cccc2C(=O)O)c(O)c1)c1ccc(O)cc1 value_measured=7.52

Record O=C(OCC(Cc1ccc(O)cc1)NS(=O)(=O)c1ccccc1)c1cc(O)c(C(=O)c2c(O)cccc2C(=O)O)c(O)c1 (stereo not drawn) . Reported pIC50: 4.49

---

biological target: UniProt:P12931
Sequence (P12931 2-536 limits assumed): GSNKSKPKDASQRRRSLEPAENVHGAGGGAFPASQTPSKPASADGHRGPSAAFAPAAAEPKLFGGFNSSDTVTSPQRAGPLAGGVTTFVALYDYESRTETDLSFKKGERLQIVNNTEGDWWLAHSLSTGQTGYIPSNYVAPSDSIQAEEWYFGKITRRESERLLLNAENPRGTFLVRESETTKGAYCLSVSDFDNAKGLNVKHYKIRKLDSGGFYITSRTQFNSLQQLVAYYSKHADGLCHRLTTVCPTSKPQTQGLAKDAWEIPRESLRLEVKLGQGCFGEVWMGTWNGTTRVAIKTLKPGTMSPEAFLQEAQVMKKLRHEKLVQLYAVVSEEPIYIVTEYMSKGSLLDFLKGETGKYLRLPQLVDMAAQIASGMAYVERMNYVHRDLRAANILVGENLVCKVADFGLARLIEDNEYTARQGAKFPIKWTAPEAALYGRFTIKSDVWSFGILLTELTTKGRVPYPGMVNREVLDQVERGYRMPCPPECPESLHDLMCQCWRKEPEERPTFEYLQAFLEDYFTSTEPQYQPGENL
readout-kind: IC50

Form: compound = O=C(OCC(Cc1ccc(O)cc1)NS(=O)(=O)c1ccccc1)c1cc(O)c(C(=O)c2c(O)cccc2C(=O)O)c(O)c1 (stereo unspecified) ; IC50 = > 12.5 µM
